# target under test: Recombinant human his-tagged IGF 1R extracellular domain protein (human) (UniProt P08069)
# assay method text: SPR, captured IgG, IGF-1R ECD-his analyte, dissociation pH 6
parameter measured: koff
Include the unit after the number when you answer.

VRDN-02518 (antibody, V domains shown) VH: EVQLVQSGGGLVKPGGSLRLSCAASGFTFSSFAMHWVRQAPGKGLEWISVIDTRGATYYADSVKGRFTISRDNAKNSLYLQMNSLRAEDTAVYYCARHGNFYYGMDVWGQGTTVTVSS VL: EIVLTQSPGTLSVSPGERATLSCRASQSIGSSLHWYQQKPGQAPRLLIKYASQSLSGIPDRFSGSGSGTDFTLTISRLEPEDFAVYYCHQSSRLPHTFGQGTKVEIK
1e-06 s⁻¹
VRDN-02567 (antibody, V domains shown) VH: EVQLVQSGGGLVKPGGSLRLSCAASGFTFSSFAMHWVRQAPGKGLEWISVIDTRGATYYADSVKGRFTISRDNAKNSLYLQMNSLRAEDTAVYYCARLGNFYYHHDVWGQGTTVTVSS VL: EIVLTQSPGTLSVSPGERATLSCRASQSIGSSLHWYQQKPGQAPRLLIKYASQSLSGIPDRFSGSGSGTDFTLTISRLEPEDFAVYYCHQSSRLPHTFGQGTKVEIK
0.000569 s⁻¹
VRDN-02503 (antibody, V domains shown) VH: EVQLVQSGGGLVKPGGSLRLSCAASGFHFSSFAMHWVRQAPGKGLEWISVIDTRGATYYADSVKGRFTISRDNAKNSLYLQMNSLRAEDTAVYYCARLGNFYYGMDVWGQGTTVTVSS VL: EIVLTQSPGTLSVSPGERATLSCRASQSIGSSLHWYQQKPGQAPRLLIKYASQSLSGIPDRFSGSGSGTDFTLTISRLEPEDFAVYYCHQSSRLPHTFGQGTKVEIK
1e-06 s⁻¹

Q: Quote koff reported for VRDN-02538 (antibody, V domains shown) VH: EVQLVQSGGGLVKPGGSLRLSCAASGFTFSSFAMHWVRQAPGKGLEWISVIDTRGATYYADSVKGRFTISRDNAKNSLYLQMNSLRAEDTAVYYCARLGNFYYGMDVWGQGTTVTVSS VL: EIVLTQSPGTLSVSPGERATLSCRASQSIGSSLHWYQQKPGQAPRLLIHYASQSLSGIPDRFSGSGSGTDFTLTISRLEPEDFAVYYCHQSSRLPHTFGQGTKVEIK please.
Ans: 1e-06 s⁻¹

Q: Quote koff reported for VRDN-02555 (antibody, V domains shown) VH: EVQLVQSGGGLVKPGGSLRLSCAASGFTFSSFAMHWVRQAPGKGLEWISVIDTRGATYYADSVKGRFTISRDNAKNSLYLQMNSLRAEDTAVYYCHRLGNFYYGMDVWGQGTTVTVSS VL: EIVLTQSPGTLSVSPGERATLSCRASQSIGSSLHWYQQKPGQAPRLLIKHASQSLSGIPDRFSGSGSGTDFTLTISRLEPEDFAVYYCHQSSRLPHTFGQGTKVEIK please.
Ans: 0.000418 s⁻¹
